ASSAY_TEXT: chemical genetic growth profiling, strain panel (AID 1159580);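 note: tested at 20 µM; growth read once vehicle control cultures reached saturation at 30 °C; 1 = growth at the plate median or of vehicle wells; lower values mean less growth of the strain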
MEASUREMENT_CONTEXT: S. cerevisiae strains, growth OD, strain wild type, active compounds read low
Screen size: about 5,500 compounds; about 2,000 (36%) were called active. Another 18% or so got no clear call; they are omitted. The list shows a part of the results.
ATTRIBUTE_MEASURED: normalized growth

[[record]]
molecule = "C[C@]12C=CC(=O)C=C1CCC1C2[C@@H](O)C[C@@]2(C)C1CC[C@]2(O)C(=O)CO (some centres not stated)"
test_result = "0.991 (inactive)"


// below: normalized growth requested for another molecule
Provide one value: measured normalized growth of NCCCC(=O)O 1.01 (inactive)

====

Below, each of the molecules is paired with its reported normalized growth value.
ASSAY_TEXT: chemical genetic growth profiling, strain panel (AID 1159580)
MEASUREMENT_CONTEXT: S. cerevisiae deletion strains, growth OD, locus YPL241C, strain CIN2, active compounds read low
Hit rate of the full screen: of about 5,500 compounds, about 2,000 (36%) were called active. Not shown: some 18% with an inconclusive outcome. This is one part of the list. Where a SMILES comes first, the peptide text is derived from it.

Solved cases (5 shown):
[[record]]
molecule = "OC[C@H]1O[C@@H](n2cnc3c(NCc4ccco4)ncnc32)[C@H](O)[C@@H]1O"
attribute_measured = "normalized growth"
test_result = "1 (inactive)"

[[record]]
molecule = "CC(=O)N[C@@H](CC(=O)O)C(=O)N[C@@H](CCC(=O)O)C(=O)O (Ac-Asp-Glu-OH)"
attribute_measured = "normalized growth"
test_result = "1.01 (inactive)"

[[record]]
molecule = "FC(F)(F)c1ccc2[nH]c(=S)[nH]c2c1"
attribute_measured = "normalized growth"
test_result = "0.966 (inactive)"

[[record]]
molecule = "C1N2CN3CN1CN(C2)C3"
attribute_measured = "normalized growth"
test_result = "1.08 [resistant] (active)"

[[record]]
molecule = "NC1(C(=O)O)CCC1"
attribute_measured = "normalized growth"
test_result = "0.998 (inactive)"


Hello, please tell me recorded normalized growth for this one: CC1OC(O[C@H]2/C=C/C=C/C=C/C=C/C=C/C=C/C=C/[C@H](C)[C@@H](O)[C@@H](C)[C@H](C)OC(=O)CC(O)CC(O)CCC(O)C(O)CC(O)C[C@]3(O)C[C@H](O)C(C(=O)O)C(C2)O3)C(O)[C@H](N)C1O (stereo not given in full) 1.01 (inactive)

Give me measured normalized growth, please, for this molecule: C=C[C@@]1(C)CC(=O)[C@@]2(O)[C@](C)(O1)[C@@H](OC(C)=O)[C@@H](O)C1C(C)(C)CC[C@H](O)[C@@]12C (stereo not given in full) 0.989 (inactive)

Write down normalized growth measured for item O=C1NN(c2ccccc2)C(=S)Nc2ccccc21 0.98 (inactive)

Specify reported normalized growth for the molecule shown: CCOC(=O)C(=CNNS(=O)(=O)c1cc(C(F)(F)F)cc(C(F)(F)F)c1)C(=O)OCC 1.02 (inactive)

State its normalized growth: COC(=O)c1ccsc1N 0.958 (inactive)

Please supply the value of reported normalized growth for the item COc1cscc1C(N)=O 0.957 (inactive)

Please give measured normalized growth of the following entry: COC(=O)c1cscc1Sc1ccc(Cl)cc1 0.845 (active)

Answer with the recorded normalized growth for the molecule listed here: CCCc1c(-c2ccc(O)cc2)nn(-c2ccc(O)cc2)c1-c1ccc(O)cc1 0.991 (inactive)

====

ASSAY_TEXT: chemical genetic growth profiling, strain panel (AID 1159580);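 note: tested at 20 µM; growth read once vehicle control cultures reached saturation at 30 °C; 1 = growth at the plate median or of vehicle wells; lower values mean less growth of the strain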
MEASUREMENT_CONTEXT: S. cerevisiae deletion strains, growth OD, locus YHR030C, strain SLT2, active compounds read low
Hit rate of the full screen: of about 5,500 compounds, about 2,000 (36%) were called active. Inconclusive results (about 18%) are left out. The list shows a part of the results.
// assign yes if normalized growth falls strictly below 1, else no (ties count as no)

[[record]]
compound = "CN/C(=C\\[N+](=O)[O-])NCCSCc1csc(CN(C)C)n1"
group = "no"

[[record]]
compound = "O=S(=O)(NCC1CC1)c1ccc(F)c(Cl)c1"
group = "yes"

[[record]]
compound = "Clc1ccccc1-c1csc(-c2ccncc2)n1"
group = "yes"

[[record]]
compound = "O=S(=O)(NCc1ccc(F)cc1F)c1cccc(C(F)(F)F)c1"
group = "yes"

[[record]]
compound = "Cn1c(=S)[nH]c2cc(C(F)(F)F)ccc21"
group = "yes"


Below 1 on normalized growth? Entry CC(=O)O[C@H]1CC[C@@]2(C)C(C[C@@H](OC(C)=O)[C@]3(C)C2CC[C@@]2(C)[C@H](c4ccoc4)OC(=O)[C@H]4O[C@]423)C1(C)C (some centres not stated) no

In plain terms, does Cn1nccc1-c1cc(Cl)cc(Cl)c1O come in under 1 for normalized growth? yes

Quick check: normalized growth of Nc1nc(F)nc2c1ncn2[C@@H]1O[C@H](COP(=O)(O)O)[C@@H](O)[C@@H]1O under 1? no

Is normalized growth of COc1ccnc(CS(=O)c2nc3ccc(OC(F)F)cc3[nH]2)c1OC (configuration not stated) strictly below 1? yes

Identify whether the compound O=S(=O)(NCc1ccc(C(F)(F)F)cc1)c1cccc(C(F)(F)F)c1 records normalized growth below 1. yes

I'd appreciate it if you could check whether Cc1ccccc1/C=C/c1c[nH]c2ccccc12 has normalized growth smaller than 1. yes

Item Brc1ccc(-c2csc(-c3cccnc3)n2)cc1 : normalized growth beneath 1, strictly? yes

Consider CCN1CN=C(SCc2ccc(Br)cc2)NC1 . Does its normalized growth lie strictly below 1? yes

State whether 1 exceeds normalized growth recorded for COc1ccc2nc(S(=O)Cc3ncc(C)c(OC)c3C)[nH]c2c1 (configuration not stated) . yes

Please indicate whether the reported normalized growth of CC12CCC3C(CC[C@H]4CC5(CCC34C)OCCO5)C1CCC2O (some centres not stated) is strictly below 1. yes

Quick check: normalized growth of O=S(=O)(NCc1ccc(C(F)(F)F)cc1)c1cc(Br)c(Br)s1 under 1? yes

Is it true that normalized growth reported for O=S(=O)(NCc1cc(Cl)cc(Cl)c1)c1cc(C(F)(F)F)cc(C(F)(F)F)c1 is less than 1? yes

Given the entry Nc1ncnc(SCc2ccc(Cl)cc2)n1 , would its reported normalized growth be below 1? no

Is the reported normalized growth for Cc1noc(C)c1S(=O)(=O)Nc1csc(C(F)(F)F)c1-c1ccccc1 strictly below 1? no

Please indicate whether the reported normalized growth of Cc1onc2c(=O)n(-c3ccccc3)nc(-c3ccccc3)c12 is strictly below 1. yes

Decide: normalized growth of CCOC(=O)c1sc(S(C)=NC(=O)Nc2ccc(Cl)cc2)c2c1CCC=C2 (configuration not stated) strictly below 1? no

====

ASSAY_TEXT: chemical genetic growth profiling, strain panel (AID 1159580);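 note: tested at 20 µM; growth read once vehicle control cultures reached saturation at 30 °C; 1 = growth at the plate median or of vehicle wells; lower values mean less growth of the strain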
MEASUREMENT_CONTEXT: S. cerevisiae deletion strains, growth OD, locus YHR027C, strain rpn1, active compounds read low
The campaign covered roughly 5,500 compounds. About 2,000 (36%) were called active. Roughly 18% stayed inconclusive and do not appear here. Some of the results follow.
ATTRIBUTE_MEASURED: normalized growth

Answered cases to consult:
[[record]]
compound = "CCCCCCCCCCCCCC(=O)OC1C(C)C2(O)C(C=C(CO)CC3(O)C(=O)C(C)=CC32)C2C(C)(C)C12OC(C)=O (configuration not stated)"
test_result = "0.994 (inactive)"

[[record]]
compound = "O=C(O)CCCCCCCC(=O)O"
test_result = "1 (inactive)"


Okay, next one:
Kindly indicate its recorded normalized growth. Item: CC(=O)N[C@@H](CCC(=O)O)C(=O)O 1.02 (inactive)

====

ASSAY_TEXT: chemical genetic growth profiling, strain panel (AID 1159580);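 note: tested at 20 µM; growth read once vehicle control cultures reached saturation at 30 °C; 1 = growth at the plate median or of vehicle wells; lower values mean less growth of the strain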
MEASUREMENT_CONTEXT: S. cerevisiae deletion strains, growth OD, locus YML124C, strain tub3, active compounds read low
Hit rate of the full screen: of about 5,500 compounds, about 2,000 (36%) were called active. Another 18% or so got no clear call; they are omitted. The list shows a part of the results.
Please respond with yes (1) when measured normalized growth is strictly beneath 1, and with no (0) in all other cases.

Solved entries:
[[record]]
compound = "CC(=O)O[C@H]1C[C@@]2(C)[C@@H](C[C@@H](O)C3[C@]2(C)CC[C@H]2[C@H](C)[C@H](O)CC[C@]32C)/C1=C(/CCC=C(C)C)C(=O)O (stereo not given in full)"
group = "no (0)"

[[record]]
compound = "NC(N)=NCCN1CCCCCCC1"
group = "no (0)"

[[record]]
compound = "Clc1ccc(CSC(Cn2ccnc2)c2ccc(Cl)cc2Cl)cc1 (stereo not given)"
group = "yes (1)"


I'd appreciate it if you could check whether CCN1C[C@@]2(COC)C3[C@@H](OC)[C@H]4[C@@H]1[C@]3(C(OC)C[C@H]2O)C1C[C@@]2(O)[C@H](OC(=O)c3ccccc3)C1[C@]4(OC(C)=O)[C@@H](O)[C@@H]2OC (stereo not given in full) has normalized growth smaller than 1. no (0)

Threshold test, normalized growth < 1: COc1ccc2oc(-c3ccccc3)c(OC)c(=O)c2c1 yes (1)

Could you please tell me whether normalized growth recorded for C[C@]12CCC3C(CC[C@H]4C[C@@H](O)CC[C@]34C)C1CC[C@@H]2O (stereo not given in full) is less than 1? no (0)
